meta.source: patent US20200283478A1

Target: T1, His-tagged PCSK9Δhelix (human, UniProt Q8NBP7 31-152; Q8NBP7 168-692)
T1 construct: Construct M1-Q692 with engineered TEV site, cut by TEV protease; new N-terminus of the catalytic domain is S-A168; also called His-PCSK9Δhelix
T1 sequence (Q8NBP7 31-152, stated change not applied, chain 1 of 2): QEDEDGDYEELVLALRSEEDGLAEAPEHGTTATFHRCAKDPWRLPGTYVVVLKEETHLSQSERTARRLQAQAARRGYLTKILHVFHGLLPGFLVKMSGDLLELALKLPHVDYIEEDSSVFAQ
T1 sequence (Q8NBP7 other isoform, or with tags, fused parts or gaps mutant, chain 2 of 2): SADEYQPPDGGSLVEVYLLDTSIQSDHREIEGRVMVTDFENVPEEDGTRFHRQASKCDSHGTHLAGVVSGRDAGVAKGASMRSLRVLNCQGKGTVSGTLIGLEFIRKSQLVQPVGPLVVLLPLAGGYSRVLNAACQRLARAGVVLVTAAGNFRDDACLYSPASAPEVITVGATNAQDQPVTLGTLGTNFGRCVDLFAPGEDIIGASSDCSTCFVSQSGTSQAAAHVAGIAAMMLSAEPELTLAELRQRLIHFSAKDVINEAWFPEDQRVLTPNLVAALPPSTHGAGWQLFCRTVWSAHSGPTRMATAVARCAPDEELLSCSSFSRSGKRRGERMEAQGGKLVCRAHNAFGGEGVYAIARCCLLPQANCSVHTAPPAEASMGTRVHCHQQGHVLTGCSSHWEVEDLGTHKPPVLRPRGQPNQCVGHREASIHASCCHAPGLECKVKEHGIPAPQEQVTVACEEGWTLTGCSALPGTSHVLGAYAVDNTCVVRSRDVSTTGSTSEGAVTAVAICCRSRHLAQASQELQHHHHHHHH
Test: TR-FRET competition; His-PCSK9Δhelix, competitor Ab20
Square brackets hold non-standard residues; d marks the D form. Ends that are not written are not given here. * marks the point of attachment. hArg = N=C(N)NCCCC[C@H](N)C(=O)O; Pentanoyl = CCCCC(=O)*
List of log10 of IC50 values.
Hey, these are logged values: log10 of IC50, µM being the unit before logging.

In the examples that follow, each entry is paired with its recorded log10 of IC50.
| Binder | Measured parameter | Data value |
| --- | --- | --- |
| WNLVRIGLLR (also: further groups not given here, Structure printed only as a drawing) [Compound 137] | log10 of IC50 | 0.83 |
| Pentanoyl-WNLVRIGLAR-NH2 (SMILES CCCCC(=O)N[C@@H](Cc1c[nH]c2ccccc12)C(=O)N[C@@H](CC(N)=O)C(=O)N[C@@H](CC(C)C)C(=O)N[C@H](C(=O)N[C@@H](CCCNC(=N)N)C(=O)N[C@H](C(=O)NCC(=O)N[C@@H](CC(C)C)C(=O)N[C@@H](C)C(=O)N[C@@H](CCCNC(=N)N)C(N)=O)[C@@H](C)CC)C(C)C) [Compound 180] | log10 of IC50 | 1.08 |
| Pentanoyl-WNLVRIGLLR [Compound 152] | log10 of IC50 | 1.15 |
| WNLV[hArg]IGLLR (also: end groups and other groups only in drawing, Structure printed only as a drawing) [Compound 199] | log10 of IC50 | -0.70 |
| WNLVRIGLLR (also: further groups not given here, Structure printed only as a drawing) [Compound 147] | log10 of IC50 | -0.39 |

What does the data say about its log10 of IC50? Entry: WNLVRIGLLR (also: further groups not given here, Structure printed only as a drawing) [Compound 139]
1.28
